Target: T1, recombinant CD47 (recCD47), SinoBiological 12283-H27H-B, biotinylated (human, UniProt Q08722 19-139, biotinylated (AVI-tag))
T1 construct: Bought protein, 17 kDa; At 17 kDa it can only be a part of it; also called recombinant biotinylated CD47; not shown: C-terminal His- and AVI-tag
T1 sequence (Q08722 19-139 limits assumed): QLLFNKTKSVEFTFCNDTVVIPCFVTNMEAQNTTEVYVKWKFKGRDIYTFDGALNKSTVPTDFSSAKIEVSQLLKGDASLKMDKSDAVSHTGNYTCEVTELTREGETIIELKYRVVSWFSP
Assay: SPR Biacore S200, single-cycle, recCD47 on SA chip 100 RU, antibody as analyte, 25 C, 1:1 model;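 further: antibodies were injected over the captured CD47 at a series of concentrations, and KD was derived as the dissociation rate constant divided by the association rate constant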
Reported Kd is given for each of the following binders.
outcome_measure: Kd (nM)

- binder: "CO207 humanized IgG4 anti-CD47 antibody (antibody, V domains shown, also called huCO-mAb) VH: QVQLVQSGSELKKPGASVKVSCKASGYTFTNFGMHWVRQAPGQGLKWMGWINTYTGEPTYTDDFKGRFVFSLDTSVSTAYLQISSLKAEDTAVYYCTRGDYRYGDSWGQGTTVTVSS VL: DIVMTQTPLSLSVTPGQPASISCRSSQSLVHSNGKTYLHWYLQKPGQSPQLLIYRVSNRFSGVPDRFSGSGSGTDFTLKISRVEAEDVGVYYCSQSTHVPFTFGQGTKLEIK"
  measured_result: 0.0153
- binder: "CO208 humanized IgG4 anti-CD47 antibody (antibody, V domains shown, also called huCO-mAb) VH: QVQLVQSGSELKKPGASVKVSCKASGYTFTNFGMHWVRQAPGKGLKWMGWINTYTGEPTYTDDFKGRFVFSLDTSVSTAYLQISSLKAEDTAVYYCTRGDYRYGDSWGQGTTVTVSS VL: DIVMTQTPLSLSVTPGQPASISCRSSQSLVHSNGKTYLHWYLQKPGQSPQLLIYRVSNRFSGVPDRFSGSGSGTDFTLKISRVEAEDVGVYYCSQSTHVPFTFGQGTKLEIK"
  measured_result: 0.016
- binder: "CO209 humanized IgG4 anti-CD47 antibody (antibody, V domains shown, also called huCO-mAb) VH: QVQLVQSGSELKKPGASVKVSCKASGYTFTNFGMHWVRQAPGQGLEWMGWINTYTGEPTYTDDFKGRFVFSLDTSVSTAYLQISSLKAEDTAVYYCARGDYRYGDSWGQGTTVTVSS VL: DIVMTQTPLSLSVTPGQPASISCRSSQSLVHSNGKTYLHWYLQKPGQSPKLLIYRVSNRFSGVPDRFSGSGSGTDFTLKISRVEAEDVGVYYCSQSTHVPFTFGQGTKLEIK"
  measured_result: 0.0386
- binder: "CO206 humanized IgG4 anti-CD47 antibody (antibody, V domains shown, also called huCO-mAb) VH: QVQLVQSGSELKKPGASVKVSCKASGYTFTNFGMHWVRQAPGQGLEWMGWINTYTGEPTYTDDFKGRFVFSLDTSVSTAYLQISSLKAEDTAVYYCTRGDYRYGDSWGQGTTVTVSS VL: DIVMTQTPLSLSVTPGQPASISCRSSQSLVHSNGKTYLHWYLQKPGQSPQLLIYRVSNRFSGVPDRFSGSGSGTDFTLKISRVEAEDVGVYYCSQSTHVPFTFGQGTKLEIK"
  measured_result: 0.0205
- binder: "CO205 humanized IgG4 anti-CD47 antibody (antibody, V domains shown, also called huCO-mAb) VH: QVQLVQSGSELKKPGASVKVSCKASGYTFTNFGMHWVRQAPGQGLEWMGWINTYTGEPTYTDDFKGRFVFSLDTSVSTAYLQISSLKAEDTAVYYCARGDYRYGDSWGQGTTVTVSS VL: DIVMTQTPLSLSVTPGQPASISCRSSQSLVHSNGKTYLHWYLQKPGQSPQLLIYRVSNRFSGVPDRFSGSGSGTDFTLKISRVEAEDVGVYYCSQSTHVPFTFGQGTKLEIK"
  measured_result: 0.056
